System: A2780 ovarian carcinoma cells
Test: Antiproliferative activity on A2780 cells, MTT (C.2)
Assay type: cell-based
Settings: Homo sapiens, 96 h, four days of incubation, read-out: Cellular activity pIC50 C.2 (converted)
Description: All compounds tested were dissolved in DMSO and further dilutions were made in culture medium. Final DMSO concentrations never exceeded 0.1% (v/v) in cell proliferation assays. […] Cells were seeded in NUNC™ 96-well culture plates (Supplier: Life Technologies) and allowed to adhere to the plastic overnight. […] Following four days of incubation, medium was replaced by 200 μl fresh medium and cell density and viability was assessed using an MTT-based assay. […]
Assign IC50 to each entry below.
Answers are plain numbers, in nM.

Sample records with IC50:
1) Cn1cc(CNCC2CCN(c3ncc(C(=O)NO)cn3)CC2)c2cc(F)ccc21; 10
2) Cn1c(CNCC2CCN(c3ncc(C(=O)NO)cn3)CC2)cc2ccccc21; 31.6
3) O=C(NO)c1cnc(N2CCC(NCc3c[nH]c4ccccc34)CC2)nc1; 794
4) Cc1[nH]c2ccccc2c1CNCC1CCN(c2ncc(C(=O)NO)cn2)CC1; 200
5) CCN(Cc1cn(C)c2ccccc12)CC1CCN(c2ncc(C(=O)NO)cn2)CC1; 63.1
6) CN(Cc1cn(C)c2ccccc12)CC1CCN(c2ncc(C(=O)NO)cn2)CC1; 31.6
7) O=C(NO)c1cnc(N2CCC(CNCc3cn(Cc4ccccc4)c4ccccc34)CC2)nc1; 12.6
8) Cn1cc(CNCC2CCN(c3ccc(C(=O)NO)cn3)CC2)c2ccccc21; 79.4
9) Cc1cccc2c(CNCC3CCN(c4ncc(C(=O)NO)cn4)CC3)cn(C)c12; 31.6
10) CCCn1cc(CNCC2CCN(c3ncc(C(=O)NO)cn3)CC2)c2cc(Cl)ccc21; 10

Provide reported IC50 for each item, in the same order as listed.
1. O=C(NO)c1cnc(N2CCC(CNCc3c[nH]c4ccc(Cl)cc34)CC2)nc1
2. O=C(NO)c1cnc(N2CCC(CNCc3c[nH]c4ccc(Br)cc34)CC2)nc1
3. O=C(NO)c1cnc(N2CCC(CNCc3cccc4cc[nH]c34)CC2)nc1
4. Cn1cc(CNCC2CCN(c3ncc(C(=O)NO)cn3)CC2)c2ccccc21

Result:
31.6
31.6
31.6
6.31

====

tested on: A2780 ovarian carcinoma cells; assay: Antiproliferative activity on A2780 cells, MTT (C.2); type: cell-based; details: Homo sapiens, 96 h, four days of incubation, read-out: Cellular activity pIC50 C.2 (converted)
measurement_label: IC50 (nM)
Numbers only, in nM.

Sample records with IC50:
1) Cn1cc(CNCC2CCN(c3ncc(C(=O)NO)cn3)CC2)c2c(F)cccc21; 31.6
2) CN(CCc1cn(C)c2ccccc12)CC1CCN(c2ncc(C(=O)NO)cn2)CC1; 25.1

Turning to the following molecule.
Record CN(CCc1c[nH]c2ccccc12)CC1CCN(c2ncc(C(=O)NO)cn2)CC1 ; system A2780 ovarian carcinoma cells; IC50 = 200

====

Assign solubility to each entry below.
assay: Solubility/stability at different pH's, chemiluminescent nitrogen detector (C.3.b); format: physicochemical; settings: aqueous buffer; pH = 2.3
Give bare numbers, in µg/mL.

Provide reported solubility for each item, in the same order as listed.
1. CCCn1cc(CNCC2CCN(c3ncc(C(=O)NO)cn3)CC2)c2cc3c(cc21)OCO3
2. COc1ccc2c(c1)c(CNCC1CCN(c3ncc(C(=O)NO)cn3)CC1)cn2C
3. CCCCn1cc(CNCC2CCN(c3ncc(C(=O)NO)cn3)CC2)c2ccccc21

Result:
1. 1700
2. 1600
3. 2100
